Molecular target: T1, SBV Gc head domain (SBV-Gc_(head)) (Bovine Schmallenberg virus (isolate …))
T1 construct: not shown: Twin Strep-tag, C-terminal, kept
T1 chain: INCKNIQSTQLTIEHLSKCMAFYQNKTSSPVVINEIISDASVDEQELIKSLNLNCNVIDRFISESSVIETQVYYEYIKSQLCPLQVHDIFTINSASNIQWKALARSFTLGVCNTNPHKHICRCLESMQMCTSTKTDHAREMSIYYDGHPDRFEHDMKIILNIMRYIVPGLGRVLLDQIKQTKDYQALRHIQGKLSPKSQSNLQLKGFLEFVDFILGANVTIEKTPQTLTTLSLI
Test: ELISA; competition ELISA: antigen on Strep-Tactin microplates; competing VHH at 11.11 µg/ml, 1 hr RT, then HRP-conjugated analyte VHH, 1 hr RT; competition as percentage of blocking, above 50% counted as efficient
Conditions: both partners purified
metric.name: binding result

SB11 (VHH, source: S. cerevisiae, purified from the culture supernatant (IMAC, Ni-NTA)) VHH: QVQLQESGGGMVQAGGSLRLSCAASGRTFRGYGMGWWRQAPGQERDIVAWIRWSDSTGFYIDSVKGRFTISSDNAKNTVYLQMNSLKVEDTAVYYCAAARGTTGWGAVEDRYWGQGAQVTVSS	binds
SB12 (VHH, source: S. cerevisiae, purified from the culture supernatant (IMAC, Ni-NTA)) VHH: QVQLQQSGGGLVQAGGSLRLSCAASGRKISSLTIYGMGWFRQAPGKEREFVAAISQAGGTTSYADSIKDRFTISRDNDKNTAYLQMNNLKPEDTAVYYCAADFLPRIISRRYSDYEYWGQGAQVTVSS	binds
SB10 (VHH, source: S. cerevisiae, purified from the culture supernatant (IMAC, Ni-NTA)) VHH: QVQLQESGGGLVQAGDSLRVSCAASGRTLRNYHVGWFRQAPGKDREFVAAVSWDDSTYYTESVKGRFTISRDNANNTVYLQMNSLKPEDTAVYYCAADRGSVPFYSDFLRGRYEYGGQGTQVTVSS	binds
SB14 (VHH, source: S. cerevisiae, purified from the culture supernatant (IMAC, Ni-NTA)) VHH: QVQLQQSGGGLVQAGGSLRLSCTASGRTFSTYVMGWFRQAPGKEREFVGAISWSGGSTVYADSVKGRFTISRDDAKNTVYLQMNSLKPEDTAVYYCAADDSSWYLVLDAYEYDYWGQGTQVTVSS	binds
